Give inhibition at 1 µM for every item shown.
Target: hNAMPT protein (Homo sapiens (Human), UniProt P43490)
Sequence (P43490 whole entry): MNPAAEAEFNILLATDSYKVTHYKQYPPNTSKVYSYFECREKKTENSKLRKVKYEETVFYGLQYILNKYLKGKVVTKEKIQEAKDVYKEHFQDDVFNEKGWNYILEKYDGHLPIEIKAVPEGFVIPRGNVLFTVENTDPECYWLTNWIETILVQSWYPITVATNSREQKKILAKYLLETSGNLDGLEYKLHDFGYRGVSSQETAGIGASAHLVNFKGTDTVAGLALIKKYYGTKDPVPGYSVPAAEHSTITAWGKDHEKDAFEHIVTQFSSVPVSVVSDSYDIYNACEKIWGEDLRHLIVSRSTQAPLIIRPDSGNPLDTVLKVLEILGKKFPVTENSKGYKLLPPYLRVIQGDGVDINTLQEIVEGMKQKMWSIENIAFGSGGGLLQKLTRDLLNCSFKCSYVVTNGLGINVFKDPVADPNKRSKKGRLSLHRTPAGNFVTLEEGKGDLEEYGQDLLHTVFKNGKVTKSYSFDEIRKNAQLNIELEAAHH
Assay: NAMPT enzyme assay (TR-FRET/HTRF with BodiPY ligand)
Assay type: binding
Conditions: NAMPT inhibition at compound concentration 1 μM; read-out: Percent Inhibition

Input: Give the measured inhibition at 1 µM of `CCOc1cc(-c2ccc(F)cc2)nc2cc(C(=O)NCCc3n[nH]nc3C)ccc12` .
Output: 98%

Input: Which inhibition at 1 µM value belongs to `CCOc1cc(-c2ccc(F)cc2)nc2cc(C(=O)NCCCc3cc[nH]n3)ccc12` ?
Output: 100%

Input: What value of measured inhibition at 1 µM is listed for `CCOc1cc(-c2ccnc(C)c2)nc2cc(C(=O)NCCCc3cnn[nH]3)ccc12` ?
Output: 100%

Input: Find the recorded inhibition at 1 µM belonging to `CCOc1cc(-c2ccc(C)nc2)nc2cc(C(=O)NCCc3nnc[nH]3)ccc12` and report it.
Output: 95%

Input: Quick check: inhibition at 1 µM of `CCOc1cc(-c2cc(C)nc(OC)c2)nc2cc(C(=O)NCCCc3nnc[nH]3)ccc12` ?
Output: 98%

Input: I would be grateful if you could share the reported inhibition at 1 µM for `CCOc1cc(-c2ccnc(OC)c2)nc2cc(C(=O)NCc3nc4cnccc4[nH]3)ccc12` .
Output: 100%

Input: Look at this compound and give its reported inhibition at 1 µM. `CCOc1cc(C2=CCOCC2)nc2cc(C(=O)NCCCc3nnc[nH]3)ccc12`
Output: 91%

Input: What does the data say about its inhibition at 1 µM? Entry: `CCOc1cc(-c2ccc(F)cc2OC)nc2cc(C(=O)NCCCc3cnn[nH]3)ccc12`
Output: > 99%

* * *

System: PC3 cells
Test: PC3 growth inhibition (Cell-titer glo, 72 hours)
Type: cell-based
Conditions: Homo sapiens, PC-3, 72 h, read-out: Percent Viability, PC3 cells, compound concentration 1.667 μM, 72 hours
Field: viability at 1.667 µM. Provide a value for each of the compounds that follow.
Write down the numeric answer in % and omit the unit.

Input: Quick one: viability at 1.667 µM for CCOc1nc(-c2ccc(Cl)s2)nc2cc(C(=O)NCc3ccc4nccn4c3)ccc12 [Compound I-28] ?
Output: 1

Input: Data request, read-out viability at 1.667 µM, for CCOc1c(F)c(-c2ccc(F)cc2)nc2cc(C(=O)NCCCc3cnn[nH]3)ccc12 [Compound I-73]
Output: 1

Input: # get_value(readout='viability at 1.667 µM', item= CC(C)Oc1cc(-c2ccc(F)cc2)nc2cc(C(=O)NCCCc3ncc[nH]3)ccc12 [Compound I-17] )
Output: 0

Input: Given the entry CCOc1cc(-c2cc(OC)ncc2F)nc2cc(C(=O)NCCCc3[nH]nnc3C)ccc12 [Compound I-68] , report its measured viability at 1.667 µM.
Output: 1

Input: Return reported viability at 1.667 µM; argument: CCOc1cc(-c2ccnc(OC)c2)nc2cc(C(=O)NCCc3[nH]nnc3C)ccc12 [Compound I-83]
Output: 2

Input: Please give the measured viability at 1.667 µM for this compound: CCCc1cc(-c2ccc(F)cc2)nc2cc(C(=O)NCCCc3ncc[nH]3)ccc12 [Compound I-163]
Output: 2

Input: What value of viability at 1.667 µM has been reported for the following compound? CCCc1nc(-c2ccc(Cl)cc2)nc2cc(C(=O)NCCCc3ncc[nH]3)ccc12 [Compound I-4]
Output: 1

Input: // viability at 1.667 µM lookup, key: CCOc1cc(-c2ccnc(OC)c2Cl)nc2cc(C(=O)NCCCc3nnc[nH]3)ccc12 [Compound I-166]
Output: 2
